# Procedure text: Test on the solubility in a simulated body fluid
# Type: physicochemical
# Cond: 0.01 M PBS pH 7.4, 37° C., 6 h
Measure name: Compound concentration: Bupivacaine (µM)

>>> number("CCCCN1CCCCC1C(=O)Nc1c(C)cccc1C.O=C(O)c1cc2ccccc2c(Cc2c(O)c(C(=O)O)cc3ccccc23)c1O [Preparation Example 10, mono(bupivacaine) pamoate]")
83.3
>>> number("CC1(C)C2CCC1(CS(=O)(=O)O)C(=O)C2.CCCCN1CCCCC1C(=O)Nc1c(C)cccc1C (centres unmarked) [Preparation Example 8, bupivacaine camphorsulfonate]")
71253.9
>>> number("CCCCN1CCCCC1C(=O)Nc1c(C)cccc1C.CCCCN1CCCCC1C(=O)Nc1c(C)cccc1C.O=C(O)c1cc2ccccc2c(Cc2c(O)c(C(=O)O)cc3ccccc23)c1O [Preparation Example 15, bis(bupivacaine) pamoate]")
290.1
>>> number("CCCCN1CCCCC1C(=O)Nc1c(C)cccc1C.CCCCN1CCCCC1C(=O)Nc1c(C)cccc1C.Cc1ccc(C(=O)OC(C(=O)O)C(OC(=O)c2ccc(C)cc2)C(=O)O)cc1 (centres unmarked) [Preparation Example 4, bis(bupivacaine) di-p-toluoyl tartarate]")
11851.8
>>> number("CCCCN1CCCCC1C(=O)Nc1c(C)cccc1C.O=P1(O)Oc2ccc3ccccc3c2-c2c(ccc3ccccc23)O1 [Preparation Example 7, bupivacaine binaphthol phosphate]")
317.7
